Reference source: patent US20230265151A1

Biological target: human GLP-1 receptor (human, UniProt P43220 24-463)
Test: cell-based or functional assay
QUANTITY_NAME: cAMP EC50 (1.0% HSA) (nM)

BINDER | ENDPOINT_UNIT | OBSERVED_RESULT
YXEGTXTSDYXIXLDXIAQXEFIKXLIKGGPSSGAPPPS (Y-Aib-EGT-αMeF(2F)-TSDY-Aib-I-αMeL-LD-Orn-IAQ-Aib-EFIK((2-[2-(2-Amino-ethoxy)-ethoxy]-acetyl)3-(γ-Glu)-CO-(CH2)12-CO2H)-αMeY-LIK((2-[2-(2-Amino-ethoxy)-ethoxy]-acetyl)3-(γ-Glu)-CO-(CH2)12-CO2H)GGPSSGAPPPS-NH2) [Example 343] | nM | 20.2
YXEGTXTSDYXIXLDXIAQXKFIXXLIKGGPSSGAPPPS (Y-Aib-EGT-αMeF(2F)-TSDY-Aib-I-αMeL-LD-Orn-IAQ-Aib-K((2-[2-(2-Amino-ethoxy)-ethoxy]-acetyl)2-(γ-Glu)-CO-(CH2)12-CO2H)Fl-(D-Glu)-αMeY-LIK((2-[2-(2-Amino-ethoxy)-ethoxy]-acetyl)2-(γ-Glu)-CO-(CH2)12-CO2H)GGPSSGAPPPS-NH2) [Example 234] | nM | 156
YXEGTXTSDYXIXLDXKAQXEFIXXLIEGGPSSGAPPPSK (Y-Aib-EGT-αMeF(2F)-TSDY-Aib-I-αMeL-LD-Orn-K((2-[2-(2-Amino-ethoxy)-ethoxy]-acetyl)2-(γ-Glu)-CO-(CH2)10-CH3)AQ-Aib-EFI-(D-Glu)-αMeY-LIEGGPSSGAPPPSK((2-[2-(2-Amino-ethoxy)-ethoxy]-acetyl)2-(γ-Glu)-CO-(CH2)10-CH3)-NH2) [Example 302] | nM | 6.55
